// data source = patent US12275688B2

test: Approximate kinetic solubility (visual, solvent aliquot addition); type: physicochemical; details: MIBK (4-methyl-2-pentanone), 23 °C, organic solvent or mixture, thermodynamic from solid; read-out: Solubility (mg/mL)at RT (23° C.)
Experimental Endpoint: solubility

Documented solubility of O=C(NOC[C@H](O)CO)c1ccc(F)c(F)c1Nc1ccc(I)cc1F [mirdametinib] : 48 to 95 mg/mL

* * *

assay: Approximate kinetic solubility (visual, solvent aliquot addition); assay type: physicochemical; conditions: MeCN/water (8:2 v/v), 23 °C, organic solvent or mixture, thermodynamic from solid; read-out: Solubility (mg/mL)at RT (23° C.)
Experimental Endpoint: solubility

Documented solubility of `O=C(NOC[C@H](O)CO)c1ccc(F)c(F)c1Nc1ccc(I)cc1F` : > 412 mg/mL
